Please go through the items and note down their growth inhibition.
PROCEDURE TEXT: NCI Yeast Anticancer Drug Screen. Data for the rad50 strain (AID 155);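 also: 0% = growth of vehicle-only cultures of the same strain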
RUN CONDITIONS: S. cerevisiae rad50 strain growth inhibition; at 3.7 µM; hits give high values
The panel holds about 79,000 compounds, 15% with a hit somewhere; the sample as a whole holds those more often.
Provide the reading as a plain figure in %.

Entry `Cc1c(-c2ccccn2)ccc2ccccc12` — recorded growth inhibition = 37

Documented growth inhibition of `COc1cc2ccnc(-c3c4ccccc4c(N)c4c(OC)c(OC)ccc34)c2cc1OC` : 50

The measured growth inhibition associated with `COc1cc([C@@H]2c3cc4c(cc3[C@@H](Nc3ccc(NC(=O)c5cc([N+](=O)[O-])cn5C)cc3)[C@H]3COC(=O)[C@H]23)OCO4)cc(OC)c1O` reads 74

# growth inhibition of `COc1ccc(C(=O)c2ccccc2C(=O)c2ccccc2OC)cc1` = 1

The value of growth inhibition measured for the compound `O=C(/C=C/c1cc(Cl)cc(Cl)c1O)c1cccc(O)c1` turned out to be 16

For this compound ( CCCCCCCCCCCCCCCCOP(=O)(O)OCC(N)C(=O)O (centres undefined) ), measured growth inhibition is -6

Query `O=c1ssc(=Nc2ccccc2)n1-c1ccccc1` yields growth inhibition of 5

For record `O=[N+]([O-])c1cccc2nc3ccccc3c(NCCCn3ccnc3[N+](=O)[O-])c12` the listed growth inhibition is 63

For record `O=C(O)c1cc2ccc(Cl)cc2c(O)c1C1=CCCCC1` the listed growth inhibition is -5

Record summary for COC(=O)CC1CCc2c(ccc3ccccc23)C1(C)C(=O)OC (centres undefined) : reported growth inhibition = 2

The recorded growth inhibition for `c1ccc2cc(NCNc3ccc4ccccc4c3)ccc2c1` is -5

Record `O=C(O)c1cc2ccccc2c2c1C(=O)c1ccccc1-2` , field growth inhibition: 19

// field: growth inhibition; key: C=C1CC(CCCl)(c2ccccc2)OC1=O (centres undefined) ; value = 13

Lookup result for N=C1N=Nc2nc(C3(c4nc5n(c4O)C(=N)N=N5)Cc4ccccc4C3=O)c(O)n21 (centres undefined) ; measured growth inhibition: 34

Record CC(=O)OC1CCC2(C)C(=CC(C3C=C4CC(OC(C)=O)CCC4(C)C4=C3C3CC5OC6(CCC(C)CO6)C(C)C5C3(C)CC4)C3=C2CCC2(C)C3CC3OC4(CCC(C)CO4)C(C)C32)C1 (centres undefined) . Reported growth inhibition: 1

response.value for C=C1C(=O)OC2CC1C(OC(C)=O)C/C(C)=C/CC/C(C)=C\CCC2(C)O (centres undefined) (field: growth inhibition) = 9

GET /value?item= `CCCCc1nnc(NS(=O)(=O)c2ccc(C)cc2)s1` &field=growth inhibition returns -13

Value of growth inhibition reported for the compound O=C1c2cccnc2C(=O)C2C3C=CC(C3)C12 (centres undefined) is 73

Record `Cc1cc2c3ccccc3c3ccccc3c2nn1` , field growth inhibition: 25

Note to self: growth inhibition recorded for Cc1ccc(NC(c2ccccc2)c2ccc3cccnc3c2O)cc1 (centres undefined) was -2

Summary for this compound, `CN(C)CCCCN1c2ccccc2Sc2ccc(N=[N+]=[N-])cc21` : growth inhibition is 20

Given item CN(C)CCOC1(Cc2ccc(Cl)cc2Cl)CCC(C(C)(C)C)CC1 (centres undefined) , the value recorded as its growth inhibition is 3

response.value for `COc1c(O)c(C=O)c(Br)c(C=O)c1O` (field: growth inhibition) = 7

compound `O=C1Nc2ccc(Br)cc2C1=Nc1ccc2c(c1)OCO2` , growth inhibition observed: -26

The reported value for `NC(=O)c1c([N+](=O)[O-])cc(C(F)(F)F)cc1[N+](=O)[O-]` in terms of growth inhibition is 0

Reported growth inhibition of `CC1=CC(=C(c2ccc(N)cc2)c2ccc(N)cc2)C=CC1=N` : 17

// recorded growth inhibition for COc1cc(C2SCC(=O)N2c2ccc(-c3ccc(-n4c(-c5ccccc5)nc5ccccc5c4=O)cc3)cc2)ccc1O (centres undefined) : -1

Lookup result for `CCN(CC)CCN(C)CCc1ccc(Br)cc1` ; measured growth inhibition: 10

The compound listed as COc1ccc(C(NCCNC(c2ccc(OC)c(OC)c2)c2cc3c(cc2O)OCO3)c2cc3c(cc2O)OCO3)cc1OC (centres undefined) shows growth inhibition equal to -10

Record summary for `O=C1NC(SSC2=NNC3(C(=O)N2)c2ccccc2-c2ccccc23)=NNC12c1ccccc1-c1ccccc12` : reported growth inhibition = 7

Note to self: growth inhibition recorded for `CCCCN(CCCC)C(=O)/C=C/c1ccccc1` was -12

Memo: `CCN(CC)CCOc1cc(C)c2cc(Cc3ccccc3)ccc2n1` , reported growth inhibition: -2

Record summary for `CCc1nc2ccc(NCCN(C)C)c3c(=O)c4ccccc4n1c23` : reported growth inhibition = 49

compound `O=C(CC(=O)n1nc(-c2ccccc2)c(N=Nc2ccc(Cl)cc2)c1-c1ccccc1)Nc1cccc(Cl)c1` , growth inhibition observed: 1

So, CCCCCCN(CCCCCC)CC(O)c1ccnc2ccc(OC)cc12 (centres undefined) ? Its growth inhibition was 1

Per the record, CCC(C)NC1=NCC(C)S1 (centres undefined) has growth inhibition of -20

Field growth inhibition (entry `CC(=O)Nc1ccc(/C=C/[N+](=O)[O-])cc1` ) reads 35

Sample O=C(O)CCCC1CCCc2c1ccc1ccccc21 (centres undefined) ; growth inhibition observed: 0

Query `CCCCCCCCCCCC1=NCCO1` yields growth inhibition of 18

Lab note: C=C1CCC(O)C/C1=C/C=C1\CCCC2(C)C1CCC2C(C)CCCC(C)C (centres undefined) gave growth inhibition of -9

`Cc1cc(C(C)(C)C)c(OCCCN2CCOCC2)c(C(C)(C)C)c1` has a reported growth inhibition of -6

Lookup result for `O=C(/C=C\c1cccc(C(F)(F)F)c1)c1ccccc1` ; measured growth inhibition: -3

Data point: `O=[N+]([O-])/C=C/c1cc(Cl)c(/C=C/[N+](=O)[O-])cc1Cl` ; growth inhibition = 55

Reported growth inhibition of `CC(C)OC(=O)c1ccc(CCc2cc(O)c(Br)cc2O)cc1` : 49

====

PROCEDURE TEXT: NCI Yeast Anticancer Drug Screen. Data for the CLN2oe strain (AID 163);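 also: 0% = growth of vehicle-only control cultures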
RUN CONDITIONS: S. cerevisiae CLN2oe strain, at 33.0 µM, hits give high values
This is part of a sample that, as a whole, favours compounds with a hit. Of some 79,000 tested, about 15% had one in any assay.
Can you tell me growth inhibition for the items I'm about to list?
Write it as a number; the unit % goes unstated.

// growth inhibition lookup, molecule = `Cc1sc2ccc3ccccc3c2[n+]1C` , result: -19

`CCCC/C([O-])=C1/C(=O)N(c2ccccc2)N=C1C.CCCC/C([O-])=C1/C(=O)N(c2ccccc2)N=C1C.[Cu+2]` has a reported growth inhibition of 0

Record summary for `O=C1C(Br)=C(c2ccccc2)O/C1=C/C(=O)c1ccc(Br)cc1` : reported growth inhibition = 9

Form field growth inhibition, entry `Cc1ccc2c3ccc4c(c3n(C)c2c1)C(=O)C=CC4=O` : 9

Per the records, this molecule ( `Nc1n[n+]([O-])c2ccc(Cl)cc2[n+]1[O-]` ) has growth inhibition equal to 84

Measured growth inhibition of `CCOC(=O)c1cc([N+](=O)[O-])c(Sc2ncnc3nc[nH]c23)c([N+](=O)[O-])c1` : 49

growth inhibition reported for this molecule CC[N+]1(C)CCC(O)(c2ccc(OC)cc2)C(C(=O)c2ccc(OC)cc2)C1 (configuration not stated) : -4

// sample `NC(=O)c1c([N+](=O)[O-])cc(C(F)(F)F)cc1[N+](=O)[O-]` , its growth inhibition was -5

# molecule `O=C(CSC(=S)N1CCCCC1)Nc1nc2c(s1)CCCC2` ; its growth inhibition = 0

Documented growth inhibition of `O=[N+]([O-])c1cc(F)c(F)cc1Sc1cc(F)c(F)cc1[N+](=O)[O-]` : 99

Please fill in: growth inhibition reported for `Cc1nc2ccc(N=NN(C)C)cc2[nH]1` = 96

Query `O=c1ccc(=O)n(-c2ccccc2)[nH]1` yields growth inhibition of 71

According to the records, this molecule `O=C1c2ccccc2C(=O)c2cc(CCl)ccc21` displays growth inhibition of 5

Summary for this molecule, C[CH2][Sn]([CH2]C)([O]C(=O)C(N)Cc1ccccc1)[O]C(=O)C(N)Cc1ccccc1 (configuration not stated) : growth inhibition is 14

Record summary for CC(C)C(C)/C=C\C(C)C1CCC2C3=CC=C4CC(O)CCC4(C)C3CCC21C (configuration not stated) : reported growth inhibition = -4

The molecule `CCO/C(C)=C(/C#N)C(N)=S` showed growth inhibition equal to -8

The recorded growth inhibition for `CCN(CC)CCNc1ccc2ncn3c4cc(OC)c(OC)c(=O)c4c(O)c1c23` is -2

Reported growth inhibition ( Cc1cccc[n+]1C1CCc2c(ccc3ccccc23)C1=O (configuration not stated) ) = -1

Lab note: measured growth inhibition of `O=C(Oc1ccc2c(c1)CN(Cc1ccccc1)CO2)c1ccccc1` was 16

The recorded growth inhibition for CC(=O)OCC1OC2OC(=O)NC2C(OC(C)=O)C1OC(C)=O (configuration not stated) is -4

Documented growth inhibition of `O=c1ssc(=Nc2ccccc2)n1-c1ccccc1` : 7

The value of growth inhibition measured for the molecule CCC1(OC(=O)CN2CCN(CCO)CC2)C(=O)OCc2c1cc1n(c2=O)Cc2cc3ccccc3nc2-1 (configuration not stated) turned out to be -23
